Measured T/C values are reported for all entries that follow.
# System: B6C3F1 mice, B16 melanoma ip, median survival T/C
# testName: NCI In Vivo Anticancer Drug Screen. Data for tumor model B16 Melanoma (intraperitoneal) in B6C3F1 mice
# conditions: endpoint: median survival time; dose: 6.25 mg/kg/injection; schedule: Q01DX009 (ip); vehicle: saline with Tween-80; higher = longer survival
Toxic doses and inconclusive results are not listed.

> print(dat)
                             compound  parameter    observedresult
1            O=Cc1ccc([N+](=O)[O-])s1        T/C  105 % of control
2  CCc1cc2c(cc1C(C)=O)C(C)(C)CCC2(C)C        T/C   89 % of control
3       O=C(CO)c1ccc([N+](=O)[O-])cc1        T/C   94 % of control

Give T/C for O=C1C2CC=CCC2C(=O)N1SC(Cl)(Cl)Cl (configuration not stated)
93 % of control

Identify the reported T/C for the following entry. Cn1c2nc(=O)n(-c3ccccc3)c(=O)c-2nc2c1CCCC2
119 % of control

# return recorded T/C for input ClC(Cl)(Cl)Sn1cccn1
87 % of control
